assay_name: yeast display, Sf9 membrane polyspecificity reagent, FACS + sequencing; frameworks hold sequencing errors
quantity_name: polyreactivity (PSR sort gate)

- sequence_record: "QVQLVESGGGLVQAGGSLRLSCAASGSTFFSYAMGWYRQAPGKERELVAAISNTGGTHYADSVKGRFTISRDNAKNTVYLQMNSLKPEDTAVFYCAADGWYYIGPFSVYSSFTSDYWGQGTQLTVSS"
  assay_value: "low polyreactivity"
- sequence_record: "QDQLVESGGGLVQAGGSLRLSCAASGFIFGGYAMGWYRQAPGKERELVAAISSSGGSTYYADSVKGRFTISRDNAKNTVYLQMNSLKPEDTAVYYCAKVGWSRRYYYWGQGTQVTVSS"
  assay_value: "high polyreactivity"
- sequence_record: "QVQLVESGGGLVQAGGSLRLRCAATGSIFTKYAMGWYRQAPGKERELVAAISWSGSRTRYADSVKGRFTISRDNAKNTVYLQMNSLKPEDTAVYYCAAEIAASYRPEYDYWGQGTQVTVSS"
  assay_value: "high polyreactivity"
- sequence_record: "QVQLVESGGGLVQAGGSLRLSCAASGRTFVTNAMGWYRQAPGKERELVAAISGTGGSTYYADSVKGRFTISRDNAKNTVYLQMNSLKPEDTAVYYCNKDYHVRYYYWGQGTLVTVSS"
  assay_value: "low polyreactivity"
- sequence_record: "QVQLVESGGGLVQAGGSLRLTCAASGSTFYIYAMGWYRQAPGKERELVARISGSGGSTYYADSVKGRFTISRDNAKNTVYLQMNSLKPEDTAVYYCAADDIYKYYQYYAFPYYRYDYWGQGTQVTVSS"
  assay_value: "low polyreactivity"
- sequence_record: "QVQLGESGGGLVQAGGSLRLSCAASGSTFPVYAMGWSRQAPGKEWELVAAISSGGTTNYADSVKGRFTISRDNAKNTVYLQRNSLKPEDTAVYYCAADDWYYHFLVSSSAFDYWGQGTQVTVSS"
  assay_value: "high polyreactivity"
- sequence_record: "QVQVVESGGGLVQAGCSLRLSCAASGFTFRDYAMGWYRPAPGKERELVATITLRVGSTFYADSLKGRFTISRDNAKNTVYLQKNSLKPEDTAVYYCADEDSNVVAYDYWGQGTQVTVSS"
  assay_value: "low polyreactivity"
- sequence_record: "QVQLVESGGVLVQAGGSLRLSCAASGRIFRYNTMGWDRQAPGKERELVATITRGSSTNYADSVKGRFTISRDNAKNTVYLQMNSLKPEDTAVYYCAASVWKWHSYLGRYSYIGYDYWGQGTQVTVSS"
  assay_value: "high polyreactivity"
- sequence_record: "QVQHVESGGGLVQAGGSLRLSCPASGSIIYYNTMGWYRQAPGKERELVAGISWGGGRTYYADSVKGRFTISRDNAKNTVYLQMNSLKPEDTAVYYCNAVSKYDYGYWGQGTQVTVSS"
  assay_value: "high polyreactivity"
- sequence_record: "QVQLVESGGGLVQAGGSLRLSCAASGFTFNFNAMGWYRQAPGKERELVAAIRWSGGNTYYADSVKGRFTISRDNAKNTVYLQMNSLKPEDTAVYYCNRVGYQSMNYWGQGTQVTVSS"
  assay_value: "low polyreactivity"
- sequence_record: "QVQLVESGGGLVQAGGSLRLSCAASGRIFYSNAMGWYRQAPGKERELVAAISRSGVRTYYADSVKGRFTISRDNAKNTVYLQMNSLKPEDTAVYYCAAVIYGTTPQDEYDYWGQGTQVTVSS"
  assay_value: "low polyreactivity"
- sequence_record: "QVQLEESGGGLVQAGGSLRLSCAASGRTLKVYAMGWYRTAPGKERELVAAINNGGSTNYADSVKGRFTISRDNAKNTVFLQMNSLKPEDTAVYYFNAVYYARFRKYTYYYWGQGTQVTVSS"
  assay_value: "high polyreactivity"
- sequence_record: "QVQLVESGGGLVQAGGSLRLSCAASGRIFVPNAMGWYRQAPGKERELVARISRSDGSTYYADSVKGRFTISRDNAKNTVYLQMNSLKPEDTAVYYCAASTTPRWWSFKYYYWGQGTEVTVSS"
  assay_value: "high polyreactivity"
- sequence_record: "QVQLVESGGGLVQAGGSLRLSCAASGSTFKRYAMGWYRQAPGKERELVASISSGGSTNYVDSVKGRFTISRDNAKNTVYLQMNSLKPEDTAVYYCAVSYRSFRYYWERYYSWGQGTQVTVSS"
  assay_value: "high polyreactivity"
- sequence_record: "QVQLVESGGGLLQAGGSLRLSCAASGSTFYDNAMGWYRQAPGKERELVAAISYSGASTYYADSVKGRFTISRDNEKNTVYLQMNSLKPEDTAVYYCAKTFYSLYWGQGTQVTGSS"
  assay_value: "low polyreactivity"
- sequence_record: "QVQLVESGGGLVQAGGSLRLSCAASGRTFYNYAMGGYRQAPGKERELVAAISWSDGTTYYADSVKGRFTISRDNAKNTVYLQMNSLKPEDTAVYYCAAEFESSFALGFYYWGQGTQVTVSS"
  assay_value: "high polyreactivity"
- sequence_record: "QVQLVESGGGLVQAGGSLRLSCAASGSIFAVNAMGWYRQAPGKERELVASITSGGSTNYADSVKGRFTISRDNAKNTVYLQMNSLKPEDTAVYYCNADRVRAVSRYDYWGQGTQLTVSS"
  assay_value: "low polyreactivity"
- sequence_record: "QVQLVESGGGLVPAGGSLRLSCAASGRSLSRYTMGWYRQAPGKERELVAAISTSGSTYYADSVKGRFTISRDNAKNTVYLQMNSLKPEDTAVYFCNAVRRYLQYATGYAYWGQGTQVTVSS"
  assay_value: "high polyreactivity"
- sequence_record: "QVQLVESGGGLVQAGGSLRLSCAASGSIFPPNAMGWYRQAPGKERELVAAISRRGGSTYYADSVKGRFTISRDNAKNTVYLQMNSLKPEDTAVYYCAARGGQMEYWGQGTQVTVSS"
  assay_value: "high polyreactivity"
- sequence_record: "QVQLVESGGGLVQAGGSLRLSCAASGSIFIDNAMGWYRQAPGKERELVAAITVRGASTNYADSVKGRFTISRDIAKNTVYLQMNSLKPEDTAVYYCNAVGLRSPWHQDFLIRYDYWGQGTQVTVSS"
  assay_value: "low polyreactivity"
- sequence_record: "QVQLVESGGGLVQAGGSLRLSCAASGRIFPFYAMGWYRKAPGKERELVARITLSGGSTYYADSVKGRFTISRDNAKNTVYLQMNSLKPEDTAVYYCAADRTSWSVLDFDYWGQGTQVTVSS"
  assay_value: "low polyreactivity"
